I'd be grateful if you could share measured protein stability index for these entries.
B1: PPEF2 (parent)
chain: AFKAAALIQRWYRRYVARLEMRRR

# Variants of: B1
# assay_summary: protein stability index of a GFP-peptide fusion (GPS, HEK-293T) (PSI 1-6); higher = more stable;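 note: lentivirally expressed fusions sorted by FACS into six bins by GFP to DsRed ratio, PSI derived from sequencing read proportions per bin multiplied by bin number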
# experimental_parameters: c terminus: a fixed tail appended
Give bare numbers.

These recorded examples may help you get a feel for the data.
R24G :: 3.09
I8V :: 3.41
M21R :: 2.36
R22Y :: 2.42
V16W :: 2.32

Would you be so kind as to report protein stability index for each listed record?
1. K3C
2. M21Q
3. Y12K
4. I8T

1. 1.86
2. 4.15
3. 1.78
4. 2.37

Would you be so kind as to report protein stability index for each listed record?
1. R24L
2. L19K
3. F2P
4. A17G
5. A4K
6. K3L
7. M21S
8. R13A

1: 2.9; 2: 4.7; 3: 3.78; 4: 3.96; 5: 3.27; 6: 1.75; 7: 2.11; 8: 1.62

Would you be so kind as to report protein stability index for each listed record?
1. W11Q
2. M21A
3. I8M
4. Y15N
5. R14T

[2.57, 2.44, 1.94, 5.1, 2.49]

Would you be so kind as to report protein stability index for each listed record?
1. A17E
2. A17S
3. Y12R

1. 3.13
2. 3.2
3. 1.15
